assay-name: clinical
Set-up: species or system human
cond: human, in vivo, iv, 10 mg, Vz
Positions of bridges follow the written chain, without caps; N, C: chain ends. Non-standard residues stand in square brackets, D forms with d. Residues, ends and D or L forms follow the SMILES beside them. *: point of attachment. X1 = NC[C@@H](CC(=O)*)c1cccc(Cl)c1; Dab = NCC[C@H](N)C(=O)O; Dap = NC[C@H](N)C(=O)O
recorded-endpoint: Vd (L)
Kindly provide the numeric value in L only, without the unit symbol.

get_value(item= CC(C)C[C@@H]1NC(=O)[C@@H](Cc2ccccc2)NC(=O)[C@H](CCN)NC(=O)[C@@H](NC(=O)[C@H](CN)NC(=O)[C@@H](NC(=O)C[C@H](CN)c2cccc(Cl)c2)[C@@H](C)O)CCNC(=O)[C@H]([C@@H](C)O)NC(=O)[C@H](CCN)NC(=O)[C@H](CCN)NC1=O [SPR206] (X1-T[Dap][Dab][Dab][dF]L[Dab][Dab]T; lactam 3-C (inferred)) , readout=Vd) returns 21

* * *

assay-name: clinical
cond: human, in vivo, 150 mg, CLR (renal clearance)
Positions of bridges follow the written chain, without caps; N, C: chain ends. Non-standard residues stand in square brackets, D forms with d. Residues, ends and D or L forms follow the SMILES beside them. *: point of attachment. X1 = NC[C@@H](CC(=O)*)c1cccc(Cl)c1; Dab = NCC[C@H](N)C(=O)O; Dap = NC[C@H](N)C(=O)O
recorded-endpoint: CL renal

get_value(item= CC(C)C[C@@H]1NC(=O)[C@@H](Cc2ccccc2)NC(=O)[C@H](CCN)NC(=O)[C@@H](NC(=O)[C@H](CN)NC(=O)[C@@H](NC(=O)C[C@H](CN)c2cccc(Cl)c2)[C@@H](C)O)CCNC(=O)[C@H]([C@@H](C)O)NC(=O)[C@H](CCN)NC(=O)[C@H](CCN)NC1=O [SPR206] (X1-T[Dap][Dab][Dab][dF]L[Dab][Dab]T; lactam 3-C (inferred)) , readout=CL renal) returns 35.5 mL/min

* * *

assay-name: clinical
Design: species or system human
cond: human, in vivo, iv, 400 mg
Positions of bridges follow the written chain, without caps; N, C: chain ends. Non-standard residues stand in square brackets, D forms with d. Residues, ends and D or L forms follow the SMILES beside them. *: point of attachment. X1 = NC[C@@H](CC(=O)*)c1cccc(Cl)c1; Dab = NCC[C@H](N)C(=O)O; Dap = NC[C@H](N)C(=O)O
recorded-endpoint: Tmax (h)
Kindly provide the numeric value in h only, without the unit symbol.

get_value(item= CC(C)C[C@@H]1NC(=O)[C@@H](Cc2ccccc2)NC(=O)[C@H](CCN)NC(=O)[C@@H](NC(=O)[C@H](CN)NC(=O)[C@@H](NC(=O)C[C@H](CN)c2cccc(Cl)c2)[C@@H](C)O)CCNC(=O)[C@H]([C@@H](C)O)NC(=O)[C@H](CCN)NC(=O)[C@H](CCN)NC1=O [SPR206] (X1-T[Dap][Dab][Dab][dF]L[Dab][Dab]T; lactam 3-C (inferred)) , readout=Tmax) returns 1.1

* * *

assay-name: clinical
Parameters: species or system human
cond: human, in vivo, 25 mg, Cmax
Experimental: This was a single-center, phase 1, randomized, double-blind, placebo-controlled, first-in-human study to assess the safety, tolerability, and PK of SPR206 following SAD and MAD administrations (Fig. 7). […] Plasma and urine concentrations and PK parameters for SPR206 were summarized for each treatment using descriptive statistics. In the SAD/MAD study, geometric means were calculated for AUC and Cmax. […]
Positions of bridges follow the written chain, without caps; N, C: chain ends. Non-standard residues stand in square brackets, D forms with d. Residues, ends and D or L forms follow the SMILES beside them. *: point of attachment. X1 = NC[C@@H](CC(=O)*)c1cccc(Cl)c1; Dab = NCC[C@H](N)C(=O)O; Dap = NC[C@H](N)C(=O)O
recorded-endpoint: Cmax (ng/mL)
Kindly provide the numeric value in ng/mL only, without the unit symbol.

get_value(item= CC(C)C[C@@H]1NC(=O)[C@@H](Cc2ccccc2)NC(=O)[C@H](CCN)NC(=O)[C@@H](NC(=O)[C@H](CN)NC(=O)[C@@H](NC(=O)C[C@H](CN)c2cccc(Cl)c2)[C@@H](C)O)CCNC(=O)[C@H]([C@@H](C)O)NC(=O)[C@H](CCN)NC(=O)[C@H](CCN)NC1=O [SPR206] (X1-T[Dap][Dab][Dab][dF]L[Dab][Dab]T; lactam 3-C (inferred)) , readout=Cmax) returns 1610

* * *

assay-name: clinical
Design: species or system human
cond: human, in vivo, 100 mg, AUC0–48
Method: This was a single-center, phase 1, randomized, double-blind, placebo-controlled, first-in-human study to assess the safety, tolerability, and PK of SPR206 following SAD and MAD administrations (Fig. 7). […] Plasma and urine concentrations and PK parameters for SPR206 were summarized for each treatment using descriptive statistics. In the SAD/MAD study, geometric means were calculated for AUC and Cmax. […]
Positions of bridges follow the written chain, without caps; N, C: chain ends. Non-standard residues stand in square brackets, D forms with d. Residues, ends and D or L forms follow the SMILES beside them. *: point of attachment. X1 = NC[C@@H](CC(=O)*)c1cccc(Cl)c1; Dab = NCC[C@H](N)C(=O)O; Dap = NC[C@H](N)C(=O)O
recorded-endpoint: AUC(0-t)

get_value(item= CC(C)C[C@@H]1NC(=O)[C@@H](Cc2ccccc2)NC(=O)[C@H](CCN)NC(=O)[C@@H](NC(=O)[C@H](CN)NC(=O)[C@@H](NC(=O)C[C@H](CN)c2cccc(Cl)c2)[C@@H](C)O)CCNC(=O)[C@H]([C@@H](C)O)NC(=O)[C@H](CCN)NC(=O)[C@H](CCN)NC1=O [SPR206] (X1-T[Dap][Dab][Dab][dF]L[Dab][Dab]T; lactam 3-C (inferred)) , readout=AUC(0-t)) returns 27500 ng·h/mL

* * *

assay-name: clinical
Parameters: species or system human
cond: human, in vivo, iv, 300 mg, AUC0–8
Positions of bridges follow the written chain, without caps; N, C: chain ends. Non-standard residues stand in square brackets, D forms with d. Residues, ends and D or L forms follow the SMILES beside them. *: point of attachment. X1 = NC[C@@H](CC(=O)*)c1cccc(Cl)c1; Dab = NCC[C@H](N)C(=O)O; Dap = NC[C@H](N)C(=O)O
recorded-endpoint: AUC(0-t) (ng·h/mL)
Kindly provide the numeric value in ng·h/mL only, without the unit symbol.

get_value(item= CC(C)C[C@@H]1NC(=O)[C@@H](Cc2ccccc2)NC(=O)[C@H](CCN)NC(=O)[C@@H](NC(=O)[C@H](CN)NC(=O)[C@@H](NC(=O)C[C@H](CN)c2cccc(Cl)c2)[C@@H](C)O)CCNC(=O)[C@H]([C@@H](C)O)NC(=O)[C@H](CCN)NC(=O)[C@H](CCN)NC1=O [SPR206] (X1-T[Dap][Dab][Dab][dF]L[Dab][Dab]T; lactam 3-C (inferred)) , readout=AUC(0-t)) returns 57700

* * *

assay-name: clinical
Design: species or system human
cond: human, in vivo, iv, 10 mg, Half-life
Positions of bridges follow the written chain, without caps; N, C: chain ends. Non-standard residues stand in square brackets, D forms with d. Residues, ends and D or L forms follow the SMILES beside them. *: point of attachment. X1 = NC[C@@H](CC(=O)*)c1cccc(Cl)c1; Dab = NCC[C@H](N)C(=O)O; Dap = NC[C@H](N)C(=O)O
recorded-endpoint: half-life (h)
Kindly provide the numeric value in h only, without the unit symbol.

get_value(item= CC(C)C[C@@H]1NC(=O)[C@@H](Cc2ccccc2)NC(=O)[C@H](CCN)NC(=O)[C@@H](NC(=O)[C@H](CN)NC(=O)[C@@H](NC(=O)C[C@H](CN)c2cccc(Cl)c2)[C@@H](C)O)CCNC(=O)[C@H]([C@@H](C)O)NC(=O)[C@H](CCN)NC(=O)[C@H](CCN)NC1=O [SPR206] (X1-T[Dap][Dab][Dab][dF]L[Dab][Dab]T; lactam 3-C (inferred)) , readout=half-life) returns 2.6

* * *

assay-name: clinical
cond: human, in vivo, iv, 400 mg, Fe (%)
Positions of bridges follow the written chain, without caps; N, C: chain ends. Non-standard residues stand in square brackets, D forms with d. Residues, ends and D or L forms follow the SMILES beside them. *: point of attachment. X1 = NC[C@@H](CC(=O)*)c1cccc(Cl)c1; Dab = NCC[C@H](N)C(=O)O; Dap = NC[C@H](N)C(=O)O
recorded-endpoint: dose excreted

get_value(item= CC(C)C[C@@H]1NC(=O)[C@@H](Cc2ccccc2)NC(=O)[C@H](CCN)NC(=O)[C@@H](NC(=O)[C@H](CN)NC(=O)[C@@H](NC(=O)C[C@H](CN)c2cccc(Cl)c2)[C@@H](C)O)CCNC(=O)[C@H]([C@@H](C)O)NC(=O)[C@H](CCN)NC(=O)[C@H](CCN)NC1=O [SPR206] (X1-T[Dap][Dab][Dab][dF]L[Dab][Dab]T; lactam 3-C (inferred)) , readout=dose excreted) returns 53.4%
